Biological target: full-length beta-Catenin (Uniprot ID P35222) (Homo sapiens, UniProt P35222)
Construct: 10 nM full-length beta-Catenin (Uniprot ID P35222)
Sequence (P35222 whole entry): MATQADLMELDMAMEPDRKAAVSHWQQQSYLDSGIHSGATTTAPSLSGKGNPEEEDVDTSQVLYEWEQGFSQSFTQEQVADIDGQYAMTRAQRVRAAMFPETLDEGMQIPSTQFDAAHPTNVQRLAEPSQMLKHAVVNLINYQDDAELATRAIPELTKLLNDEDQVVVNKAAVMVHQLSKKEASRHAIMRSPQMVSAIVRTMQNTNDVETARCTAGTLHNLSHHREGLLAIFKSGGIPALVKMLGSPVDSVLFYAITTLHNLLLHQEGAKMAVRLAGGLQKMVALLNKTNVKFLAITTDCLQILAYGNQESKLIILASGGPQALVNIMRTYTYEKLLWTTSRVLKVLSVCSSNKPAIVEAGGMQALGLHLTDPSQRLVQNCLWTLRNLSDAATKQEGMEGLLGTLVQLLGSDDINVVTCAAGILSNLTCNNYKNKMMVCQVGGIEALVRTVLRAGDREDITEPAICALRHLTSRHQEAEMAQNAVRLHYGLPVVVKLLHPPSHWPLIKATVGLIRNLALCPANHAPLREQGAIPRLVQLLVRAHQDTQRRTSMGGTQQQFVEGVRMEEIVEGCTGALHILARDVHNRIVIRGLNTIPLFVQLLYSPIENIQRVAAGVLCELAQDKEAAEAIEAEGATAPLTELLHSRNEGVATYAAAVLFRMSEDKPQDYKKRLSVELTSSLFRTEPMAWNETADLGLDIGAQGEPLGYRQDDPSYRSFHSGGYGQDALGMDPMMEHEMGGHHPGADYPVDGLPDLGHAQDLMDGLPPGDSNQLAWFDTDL
Assay: Fluorescence polarization IC50 (beta-catenin / 5FAM-TCF4 10-53 competition)
Type: binding
Details: read-out: beta-Catenin FP IC50
Returns: string. Value is Fulfilled if measured IC50 is below 30 nM, and Not fulfilled if it is greater than or equal to it.

Known results for molecules:
CC(=O)N1CCC[C@]12CC=CCCCC1(CCCC=CCCCOC(=O)N3CC[C@@](C(=O)N[C@@H](Cc4ccccc4Cl)C(=O)N[C@@H](Cc4csc5ccccc45)C(=O)N[C@@H](CCC(N)=O)C(N)=O)(C3)NC(=O)[C@H](CC(C)C)NC(=O)[C@H](Cc3ccccc3)NC(=O)[C@H](C)NC(=O)[C@H](C)NC(=O)[C@H](CC(=O)O)NC(=O)[C@H](CC(=O)O)NC1=O)NC(=O)[C@H](Cc1ccc3ccccc3c1)NC(=O)[C@H](CC(=O)O)NC2=O (some centres unmarked) [I-1111] :: Fulfilled
CC(=O)N1CCC[C@]12CC=CCCCC1(CCCC=CCCCOC(=O)N3CC[C@@](C(=O)N[C@@H](Cc4ccccc4Cl)C(=O)N[C@@H](Cc4csc5ccccc45)C(=O)N[C@@H](CCC(N)=O)C(N)=O)(C3)NC(=O)[C@H]([C@@H](C)O)NC(=O)[C@H](Cc3ccccc3)NC(=O)[C@H](C)NC(=O)[C@H](C)NC(=O)[C@H](CC(N)=O)NC(=O)[C@H](CC(=O)O)NC1=O)NC(=O)[C@H](CC(C)(C)C)NC(=O)[C@H](CC(=O)O)NC2=O (some centres unmarked) [I-1014] :: Fulfilled
CC(=O)N1CCC[C@]12CC=CCCCC1(CCCC=CCOC(=O)N(C)CCC[C@@](C)(C(=O)N[C@@H](Cc3ccsc3)C(=O)N[C@@H](Cc3csc4ccccc34)C(=O)N[C@@H](CCC(N)=O)C(N)=O)NC(=O)[C@H](CC(N)=O)NC(=O)[C@H](Cc3ccccc3)NC(=O)[C@H](C)NC(=O)[C@H](C)NC(=O)[C@H](CC(=O)O)NC(=O)[C@H](CC(=O)O)NC1=O)NC(=O)[C@H](CC(C)(C)C)NC(=O)[C@H](CC(=O)O)NC2=O (some centres unmarked) [I-766] :: Not fulfilled
CC(=O)N1CCC[C@]12CC=CCCCC1(CCCC=CCCCCCC[C@@](C)(C(=O)N[C@@H](Cc3ccccc3Cl)C(=O)N[C@@H](Cc3csc4ccccc34)C(=O)N[C@@H](CCO)C(N)=O)NC(=O)[C@H](CC(C)C)NC(=O)[C@H](Cc3ccccc3)NC(=O)[C@H](C)NC(=O)[C@H](C)NC(=O)[C@H](CN(CC(=O)O)CC(F)(F)F)NC(=O)[C@H](CC(=O)O)NC1=O)NC(=O)[C@H](CC(C)(C)C)NC(=O)[C@H](CC(=O)O)NC2=O (some centres unmarked) [I-997] :: Not fulfilled

Read the next record carefully.
Ask | Field: below-cutoff. Rule: recorded IC50 strictly less than 30 nM. Subject: CC(=O)N1CCC[C@]12CC=CCCCC1(CCCC=CCCCOC(=O)N3CC[C@@](C(=O)N[C@@H](Cc4ccsc4)C(=O)N[C@@H](Cc4csc5ccccc45)C(=O)N[C@@H](CCC(N)=O)C(N)=O)(C3)NC(=O)[C@H](CC(N)=O)NC(=O)[C@H](Cc3ccccc3)NC(=O)[C@H](CCCCNC(=O)C34CC5(C)CC(C)(CC(C)(C5)C3)C4)NC(=O)[C@H](C)NC(=O)[C@H](CC(=O)O)NC(=O)[C@H](CC(=O)O)NC1=O)NC(=O)[C@H](CC(C)(C)C)NC(=O)[C@H](CC(=O)O)NC2=O (some centres unmarked) [I-900]
Reply | Not fulfilled

====

Assay: CHI Log D procedure
Assay type: physicochemical
Conditions: pH 7.4
So I've got a bunch of compounds here, and I need their CHI Log D values.
One number for each entry.

CC[C@H](C)[C@@H]1NC(=O)[C@H](CC(=O)O)NC(=O)[C@]2(CC=CCCCC3(CCCC=CCCCCCC[C@@](C)(C(=O)N[C@@H](Cc4ccccc4OC)C(=O)N[C@@H](Cc4csc5ccccc45)C(=O)N[C@@H](CCC(N)=O)C(N)=O)NC(=O)[C@H](CC(N)=O)NC(=O)[C@H](Cc4ccccc4)NC(=O)[C@H](C)NC(=O)[C@H](C)NC(=O)[C@H](CC(=O)O)NC(=O)[C@H](CC(=O)O)NC3=O)NC1=O)CCCN2C(C)=O (stereo partly drawn) [I-550] :: 2.343
CC(=O)N1CCC[C@]12CC=CCCCC1(CCCC=CCCCCOC(=O)N3CC[C@@](C(=O)N[C@@H](Cc4ccccc4)C(=O)N[C@@H](Cc4csc5ccccc45)C(=O)N[C@@H](CCC(N)=O)C(N)=O)(C3)NC(=O)[C@H](CC(N)=O)NC(=O)[C@H](Cc3ccccc3)NC(=O)[C@H](C)NC(=O)[C@H](C)NC(=O)[C@H](CCC(=O)O)NC(=O)[C@H](CC(=O)O)NC1=O)NC(=O)[C@H](C)NC(=O)[C@H](CC(=O)O)NC2=O (stereo partly drawn) [I-464] :: 1.831

Ask | Item CC(=O)N1CCC[C@]12CC=CCCCC1(CCCC=CCCCCCC[C@@](C)(C(=O)N[C@@H](Cc3ccccc3)C(=O)N[C@@H](Cc3c[nH]c4ccccc34)C(=O)N[C@@H](CCC(N)=O)C(N)=O)NC(=O)[C@H](C(C)C)NC(=O)[C@H](Cc3ccccc3)NC(=O)[C@H](C)NC(=O)[C@H](C)NC(=O)[C@H](CCC(=O)O)NC(=O)[C@H](CC(=O)O)NC1=O)NC(=O)[C@H](C)NC(=O)[C@H](Cc1c[nH]cn1)NC2=O (stereo partly drawn) [I-315] has what recorded CHI Log D?
Reply | 2.359

====

Target: beta-catenin/TCF4 engagement (Homo sapiens)
Construct: expressed in transfected cells; host or cells: HEK293
Experiment: Nano-BRET target engagement assay (B-cat-Halo & TCF4-Luc in HEK293 cells)
Format: cell-based
Settings: Peptide only; read-out: Nano-BRET Abs IC50
assay-readout: pIC50
Answers are plain numbers, as −log10 of the molar value.

Would you please look over these solved cases?
CC(=O)N1CCC[C@]12CC=CCCCC1(CCCC=CCCCOC(=O)N3CC[C@@](C(=O)N[C@@H](Cc4ccccc4Cl)C(=O)N[C@@H](Cc4csc5ccccc45)C(=O)N[C@@H](CCC(N)=O)C(N)=O)(C3)NC(=O)[C@H]([C@@H](C)O)NC(=O)[C@H](Cc3ccccc3)NC(=O)[C@H](C)NC(=O)[C@H](C)NC(=O)[C@H](CN(CC(=O)O)CC(F)(F)F)NC(=O)[C@H](CC(=O)O)NC1=O)NC(=O)[C@H](CC(C)(C)C)NC(=O)[C@H](CC(=O)O)NC2=O (stereo partly shown) :: 5.22
CC(=O)N1CCC[C@]12CC=CCCCC1(CCCC=CCCCOC(=O)N3CC[C@@](C(=O)N[C@@H](Cc4ccccc4Cl)C(=O)N[C@@H](Cc4csc5ccccc45)C(=O)N[C@@H](CCO)C(N)=O)(C3)NC(=O)[C@H](CCO)NC(=O)[C@H](Cc3ccccc3)NC(=O)[C@H](C)NC(=O)[C@H](C)NC(=O)[C@H](CN(CC(=O)O)CC(F)(F)F)NC(=O)[C@H](CC(=O)O)NC1=O)NC(=O)[C@H](CC(C)(C)C)NC(=O)[C@H](CC(=O)O)NC2=O (stereo partly shown) :: 5.15
CC(=O)N1CCC[C@]12CC=CCCCC1(CCCC=CCCCOC(=O)N3CC[C@@](C(=O)N[C@@H](Cc4ccsc4)C(=O)N[C@@H](Cc4csc5ccccc45)C(=O)N[C@@H](CCC(N)=O)C(N)=O)(C3)NC(=O)[C@H](CC(C)C)NC(=O)[C@H](Cc3ccccc3)NC(=O)[C@H](C)NC(=O)[C@H](C)NC(=O)[C@H](CN(CC(=O)O)CC(F)(F)F)NC(=O)[C@H](CC(=O)O)NC1=O)NC(=O)[C@H](CC(C)(C)C)NC(=O)[C@H](CC(=O)O)NC2=O (stereo partly shown) :: 5.30

// next item, pIC50 requested
Ask | Item CC(=O)N1CCC[C@]12CC=CCCCC1(CCCC=CCCCOC(=O)N3CC[C@@](C(=O)N[C@@H](Cc4ccsc4)C(=O)N[C@@H](Cc4csc5ccccc45)C(=O)N[C@@H](CCC(N)=O)C(N)=O)(C3)NC(=O)[C@H](CC(N)=O)NC(=O)[C@H](Cc3ccccc3)NC(=O)[C@H](C)NC(=O)[C@H](C)NC(=O)[C@H](CN(CC(=O)O)CC(F)(F)F)NC(=O)[C@H](CC(=O)O)NC1=O)NC(=O)[C@H](CC(C)(C)C)NC(=O)[C@H](CC(=O)O)NC2=O (single isomer, unassigned) has what recorded pIC50?
Reply | 4.96

From: patent US20240116985A1
